- SYSTEM_UNDER_TEST: Androgen receptor (Homo sapiens) (UniProt P10275)
- Sequence (P10275 whole entry, looked up): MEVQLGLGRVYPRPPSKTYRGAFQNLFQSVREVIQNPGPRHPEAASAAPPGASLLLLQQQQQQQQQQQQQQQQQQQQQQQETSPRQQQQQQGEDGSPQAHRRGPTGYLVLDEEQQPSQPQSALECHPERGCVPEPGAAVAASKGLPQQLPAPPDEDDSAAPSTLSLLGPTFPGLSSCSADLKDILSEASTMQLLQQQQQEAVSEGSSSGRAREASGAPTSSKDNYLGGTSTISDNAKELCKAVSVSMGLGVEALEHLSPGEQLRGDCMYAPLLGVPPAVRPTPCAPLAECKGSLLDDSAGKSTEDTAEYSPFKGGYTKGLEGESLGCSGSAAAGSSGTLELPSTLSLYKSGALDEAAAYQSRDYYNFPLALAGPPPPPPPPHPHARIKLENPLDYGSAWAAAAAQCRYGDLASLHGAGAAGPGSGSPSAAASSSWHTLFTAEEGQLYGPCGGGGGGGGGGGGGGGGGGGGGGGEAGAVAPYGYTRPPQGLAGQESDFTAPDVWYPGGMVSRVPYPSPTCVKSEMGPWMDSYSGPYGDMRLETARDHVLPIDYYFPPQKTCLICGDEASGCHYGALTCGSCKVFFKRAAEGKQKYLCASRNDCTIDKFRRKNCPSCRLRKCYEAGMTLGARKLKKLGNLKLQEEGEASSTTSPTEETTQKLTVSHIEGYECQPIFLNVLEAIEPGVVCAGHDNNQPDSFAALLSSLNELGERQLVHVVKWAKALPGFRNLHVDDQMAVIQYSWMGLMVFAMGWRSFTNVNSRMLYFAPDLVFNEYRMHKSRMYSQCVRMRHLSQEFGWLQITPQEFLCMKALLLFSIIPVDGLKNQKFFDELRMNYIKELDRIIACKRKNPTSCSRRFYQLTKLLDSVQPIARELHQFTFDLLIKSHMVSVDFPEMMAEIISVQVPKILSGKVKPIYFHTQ
- ASSAY_REMARKS: qHTS assay to identify small molecule antagonists of the androgen receptor (AR) signaling pathway using the MDA cell line (AID 743042; also: nearly all actives have a fitted effect of over 55% in size)
- CONDITION_NOTES: MDA-kb2 AR-luc, MMTV luciferase, R1881 antagonist, 16 h; series mostly up to 70.3 µM
Results filed as inconclusive are left out. Activity calls are given as the source filed them. Calls follow the shape of the dose curve; as a rule, active = well fitted inhibition curve with a large enough effect in the repeat runs; inconclusive = weak or mixed curves, or effect the other way; inactive = no such curve, though single readings can be large or run the other way.
Classes used: 1 for active, -1 for inactive

* COc1cc(C(=S)N2CCOCC2)ccc1O | -1
* CCc1ccc(C(c2ccc(CC)cc2)C(Cl)Cl)cc1 | -1
* CCOc1ccccc1C(N)=O | -1
* COC(=O)c1cccc(C(=O)OC)c1 | -1
* CC(C)CCOCc1ccccc1 | -1
* CCN(CC)C(=O)Nc1ccc(OCC(O)CNC(C)(C)C)c(C(C)=O)c1 (stereo unspecified) | -1
* CC(=O)Nc1ccc(C(=O)CCl)cc1 | -1
* OCC(CO)N[C@H]1C[C@](O)(CO)[C@@H](O)[C@H](O)[C@H]1O | -1
* CC1COC(=O)O1 (stereo unspecified) | -1
* CCCCCCCCCCCCc1ccccc1O | 1
* CN1C(=O)c2ccc([N+](=O)[O-])cc2C1=O | -1
* COc1ccc(Cc2cnc(N)nc2N)cc1OC | -1
* CCC(C)(Oc1ccc(C2(c3ccc(OC(C)(CC)C(=O)O)cc3)CCCCC2)cc1)C(=O)O (stereo unspecified) | -1
* BrC1CCC(Br)C(Br)CCC(Br)C(Br)CCC1Br (stereo unspecified) | -1
* CCCC(=O)c1ccccc1 | -1
* O=Cc1ccc(Cl)cc1 | -1

###

- ASSAY_REMARKS: qHTS RealTime-Glo MT Cell Viability Assay in HEK293 cells - 40 hour (AID 1224874); also: potency is read from the fitted curve at half-maximal effect; nearly all actives have a fitted effect of over 50% in size
- CONDITION_NOTES: RealTime-Glo luminescence
Inconclusive results are not listed. Calls of active or inactive are those of the source. Calls come from the whole dose curve; as a rule, active = well fitted cell-killing curve with a large enough effect in the repeat runs; inconclusive = weak or mixed curves, or effect the other way; inactive = flat fitted curve, though single readings scatter.
PARAMETER: Potency

• O=C(O[C@@H]1Cc2c(O)cc(O)cc2O[C@@H]1c1cc(O)c(O)c(O)c1)c1cc(O)c(O)c(O)c1 = 7.48 µM (active)
• OCCN1CCNCC1 = 7.9 µM (active)
• CCN(CC)c1ccc2c(C)cc(=O)oc2c1 = 39.2 µM (active)
• Cc1c(O)cccc1C(=O)N[C@@H](CSc1ccccc1)[C@H](O)CN1C[C@H]2CCCC[C@H]2C[C@H]1C(=O)NC(C)(C)C = 13.4 µM (active)
• O=c1n(CC2CO2)c(=O)n(CC2CO2)c(=O)n1CC1CO1 (configuration not stated) = 1.37 µM (active)
• O=C1CC2(CCCC2)CC(=O)N1CCCCN1CCN(c2ncccn2)CC1 = 27.5 µM (active)
• CCCCCC(=O)O[C@]1(C(C)=O)CC[C@H]2[C@@H]3CCC4=CC(=O)CC[C@]4(C)[C@H]3CC[C@@]21C = 24.4 µM (active)

###

- ASSAY_REMARKS: A CellTox Green Cytotoxicity Assay to monitor cytotoxicity in HEK293 cells - 40 hour (AID 1224871); also: nearly all actives have a fitted effect of over 45% in size
- CONDITION_NOTES: CellTox Green fluorescence; series mostly up to 76.8 µM
- Excerpt: National Center for Advancing Translational Sciences [NCATS] NIH Chemical Genomics Center [NCGC] U.S. Environmental Protection Agency [EPA] National Institutes of Environmental Health Sciences [NIEHS] National Toxicology Program [NTP] Cell-based models are critical for drug discovery. […] Viable cells produce no appreciable increases in fluorescence. Therefore, the fluorescence signal produced by the binding interaction with dead cell DNA is proportional to cytotoxicity. […]
Inconclusive results are not listed. Active and inactive are the calls of the source. The call rests on the fitted dose curve; in most records, active means well fitted activation curve with a large enough effect in the repeat runs; inconclusive means weak or mixed curves; inactive means flat fitted curve, though single readings scatter.
Classes used: active, inactive

• C/C=C/c1ccc(OCC)c(O)c1 = inactive
• CC(=O)OCC1=C(C(=O)O)N2C(=O)[C@@H](NC(=O)Cc3cccs3)[C@H]2SC1 = inactive
• Cc1ccc(S(=O)(=O)Oc2ccc(N=Nc3ccc(-c4ccc(N=Nc5c(O)ccc6cc(S(=O)(=O)O)cc(S(=O)(=O)O)c56)c(C)c4)cc3C)cc2)cc1 = inactive
• CC[C@H]1CN2CCc3cc(OC)c(OC)cc3[C@@H]2C[C@@H]1C[C@H]1NCCc2cc(OC)c(OC)cc21 = active
• CC(=O)CC(=O)Nc1ccc2[nH]c(=O)[nH]c2c1 = inactive
